Data provenance is paper PMC5428509.

Molecular target: BTK kinase (Bruton's tyrosine kinase) (Homo sapiens, UniProt Q06187)
Construct: purified BTK kinase
Sequence (Q06187 2-659): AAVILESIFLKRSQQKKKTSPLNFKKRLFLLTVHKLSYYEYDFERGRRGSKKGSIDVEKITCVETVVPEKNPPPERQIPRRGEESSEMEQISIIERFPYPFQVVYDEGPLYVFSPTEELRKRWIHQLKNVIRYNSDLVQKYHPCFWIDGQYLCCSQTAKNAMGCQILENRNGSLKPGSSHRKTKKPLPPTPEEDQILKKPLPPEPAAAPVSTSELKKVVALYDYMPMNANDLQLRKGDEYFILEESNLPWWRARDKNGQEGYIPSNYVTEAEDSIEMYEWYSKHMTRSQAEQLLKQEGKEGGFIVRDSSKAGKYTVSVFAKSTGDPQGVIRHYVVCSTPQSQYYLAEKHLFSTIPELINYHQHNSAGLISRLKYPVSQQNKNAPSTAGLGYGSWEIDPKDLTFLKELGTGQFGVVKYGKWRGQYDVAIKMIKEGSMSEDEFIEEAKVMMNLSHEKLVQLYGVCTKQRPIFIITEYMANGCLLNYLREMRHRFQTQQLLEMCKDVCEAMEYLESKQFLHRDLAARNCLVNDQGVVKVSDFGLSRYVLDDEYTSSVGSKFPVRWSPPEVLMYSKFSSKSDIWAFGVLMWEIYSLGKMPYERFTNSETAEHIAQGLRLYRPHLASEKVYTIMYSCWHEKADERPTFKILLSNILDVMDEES
Assay: ADP-Glo biochemical kinase assay; supported by Y551 autophosphorylation of wt vs C481S BTK and KinomeScan binding
pIC50: −log10 of the molar value.
observation.type: pIC50

compound="C=CC(=O)Nc1cc(-n2c(=O)ccc3cnc4ccc(-n5cccn5)cc4c32)ccc1C [CHMFL-BTK-11]" reported_measurement=7.57

* * *

Biological target: JAK3 kinase (Homo sapiens, UniProt P52333)
Sequence (P52333 whole entry): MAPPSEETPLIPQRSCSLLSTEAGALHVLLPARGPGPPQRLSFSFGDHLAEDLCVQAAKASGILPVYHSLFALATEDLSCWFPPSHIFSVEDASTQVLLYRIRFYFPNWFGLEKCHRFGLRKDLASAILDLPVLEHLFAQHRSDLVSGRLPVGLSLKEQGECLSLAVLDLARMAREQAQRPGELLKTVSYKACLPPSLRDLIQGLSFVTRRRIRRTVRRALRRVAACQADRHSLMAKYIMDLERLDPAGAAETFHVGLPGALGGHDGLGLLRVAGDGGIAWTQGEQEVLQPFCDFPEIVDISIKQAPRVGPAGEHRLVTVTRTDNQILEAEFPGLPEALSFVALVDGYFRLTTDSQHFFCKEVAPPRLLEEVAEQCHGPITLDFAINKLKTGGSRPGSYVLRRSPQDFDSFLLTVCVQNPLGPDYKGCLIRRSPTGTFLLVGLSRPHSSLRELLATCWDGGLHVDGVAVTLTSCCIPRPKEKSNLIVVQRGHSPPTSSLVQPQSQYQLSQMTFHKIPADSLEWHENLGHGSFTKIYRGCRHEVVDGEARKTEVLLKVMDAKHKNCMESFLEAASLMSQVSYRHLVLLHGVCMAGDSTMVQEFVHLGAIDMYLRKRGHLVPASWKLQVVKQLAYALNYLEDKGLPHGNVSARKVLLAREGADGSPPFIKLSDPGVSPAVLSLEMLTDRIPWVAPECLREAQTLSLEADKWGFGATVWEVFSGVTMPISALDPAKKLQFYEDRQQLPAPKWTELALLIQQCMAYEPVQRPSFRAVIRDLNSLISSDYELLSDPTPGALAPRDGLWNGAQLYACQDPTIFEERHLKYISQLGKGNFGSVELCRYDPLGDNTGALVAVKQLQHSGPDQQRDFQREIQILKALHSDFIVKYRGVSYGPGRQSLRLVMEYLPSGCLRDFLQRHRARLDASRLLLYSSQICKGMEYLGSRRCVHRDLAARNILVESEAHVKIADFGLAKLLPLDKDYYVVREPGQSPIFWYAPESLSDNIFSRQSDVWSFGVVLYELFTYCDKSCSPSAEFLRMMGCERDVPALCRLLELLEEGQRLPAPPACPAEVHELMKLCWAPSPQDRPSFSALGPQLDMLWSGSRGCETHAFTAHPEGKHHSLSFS
pIC50: −log10 of the molar value.
observation.type: pIC50

chemical_structure=C=CC(=O)Nc1cc(-n2c(=O)ccc3cnc4ccc(-n5cccn5)cc4c32)ccc1C observation_type=pIC50 reported_measurement=6.64
